# Tested on: Fibroblast
# ASSAY PROTOCOL: Multiplex assay against human fibroblast
# Format: toxicity, cell-based
# REPORTED CONDITIONS: 48 h, 1 µM, compound concentration 1 uM, replicate 1
Exercise: for every item that follows, state its recorded Population Fragmented Nuclei (%).

Result for `COc1ccccc1N1CCN(C[C@@H](C(=O)NC(C)(C)C)c2ccccc2)CC1.Cl.Cl` , tested on Fibroblast, Population Fragmented Nuclei (%): 18%

Lab entry: Fibroblast assay, compound `CC(=O)Nc1cccc2c1c(Sc1ccc(Cl)cc1)c(C)n2CC(=O)O` , Population Fragmented Nuclei (%) = 23%

// assay Fibroblast, entry Cc1sc2c(c1C)C(c1ccc(Cl)cc1)=N[C@@H](CC(=O)NCCCCCCCCNC(=O)COc1cccc3c1C(=O)N(C1CCC(=O)NC1=O)C3=O)c1nnc(C)n1-2 (some centres undefined) , Population Fragmented Nuclei (%) value = 41%

For the compound `CN[C@@H](C)C(=O)N[C@H](C(=O)N1CCC[C@H]1C(=O)Nc1snnc1-c1ccccc1)C1CCCCC1` , the measured Population Fragmented Nuclei (%) on Fibroblast was 23%

For the compound `CCCOc1ccc2[nH]cc(C3=CCNCC3)c2n1.Cl` , the measured Population Fragmented Nuclei (%) on Fibroblast was 17%

Summary: `NCCc1cn(S(=O)(=O)c2c(Cl)nc3sccn23)c2ccccc12.O=C(O)C(=O)O` , Fibroblast, Population Fragmented Nuclei (%) = 27%

Form field, Population Fragmented Nuclei (%) with Fibroblast, item `CCc1cc2cc(NS(=O)(=O)c3ccc(C#N)cc3)ccc2n(CC)c1=O` : 24%

Observed Population Fragmented Nuclei (%) on Fibroblast, entry `CN(C)C(=O)Cn1cc(-c2ccc(-c3cncc4ccccc34)cc2)cn1` , equals 21%

Observed Population Fragmented Nuclei (%), Fibroblast, `CC(C)COc1ccc(CNC(=O)N(Cc2ccc(F)cc2)C2CCN(C)CC2)cc1` : 27%

Record `CC(C)(C)c1cc(NC(=O)Nc2ccc(-c3cn4c(n3)sc3cc(OCCN5CCOCC5)ccc34)cc2)no1` has Fibroblast Population Fragmented Nuclei (%) equal to 19%

Test item `CC[C@@H](C)Nc1nc(C)nc2c(-c3ccc(OC)nc3C)c(C)nn12` ; Fibroblast; reported Population Fragmented Nuclei (%) was 15%

The observed Population Fragmented Nuclei (%) for `COc1cccc2c1c(NS(=O)(=O)c1ccc(Cl)s1)nn2Cc1cccc(CNC(=O)C(C)(C)O)c1` when tested with Fibroblast stands at 21%

Reported Fibroblast Population Fragmented Nuclei (%) for item `C[C@H](N)COC(=O)[C@@H](CCCCN)NC(=O)Cc1c(-c2ccc3ccccc3c2)[nH]c2c1ccc1ccccc12` was 21%

Fill in: Fibroblast Population Fragmented Nuclei (%) for `Cc1noc(-c2ccc(-c3ccc(CC(=O)O)cc3)cc2)c1NC(=O)O[C@H](C)c1ccccc1Cl` = 18%

Summary: `Cc1c(CC(=O)O)c2cccnc2n1Cc1ccc(S(C)(=O)=O)cc1C(F)(F)F` , Fibroblast, Population Fragmented Nuclei (%) = 16%

Measured on Fibroblast, `CC(/C=C1\SC(=S)N(CCCC(=O)Nc2ccc(C(=O)O)c(O)c2)C1=O)=C\c1ccccc1` has a documented Population Fragmented Nuclei (%) of 24%

Fibroblast data for Cl.NCCc1ccc(O)c(O)c1 [DOPAMINE HYDROCHLORIDE] ; its Population Fragmented Nuclei (%): 22%

Known value: Fibroblast Population Fragmented Nuclei (%) of the compound `O=C1[C@H](Cc2ccc(O)cc2)N2C(=O)CCN(C(=O)NCc3ccccc3)[C@H]2CN1Cc1cccc2ccccc12` equals 22%

// assay Fibroblast, entry CCCCCC(O)/C=C/[C@H]1C(=O)CC(O)C1C/C=C\CCCC(=O)O (some centres undefined) , Population Fragmented Nuclei (%) value = 27%
